B1: MYBL2 (parent)
chain: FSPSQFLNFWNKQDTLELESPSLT

Variants of: B1
Assay: protein stability index of a GFP-peptide fusion (GPS, HEK-293T) (PSI 1-6); higher = more stable;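 further: lentivirally expressed fusions sorted by FACS into six bins by GFP to DsRed ratio, PSI derived from sequencing read proportions per bin multiplied by bin number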
Conditions: c terminus: a fixed tail appended
readoutType: protein stability index

1) P3F : 3.08
2) E17Q : 3.02
3) N8P : 2.91

Query: Query (variant): S4Y ; field requested: protein stability index
Reply: 2.98

Query: Suppose we examine the variant E19I ; what protein stability index value has been reported?
Reply: 2.94

Query: What value of protein stability index has been reported for the following variant? S2W
Reply: 2.98

Query: For the variant L7M , what protein stability index is on record?
Reply: 3.04
